tested on: Hepatotoxicity; assay: FDA HLAED, alkaline phosphatase increase; settings: human
endpoint_name: Alkaline Phosphatase Increase - Activity Score

Here's what some known entries look like.
molecule | assayed_system | value
OC(Cn1cncn1)(Cn1cncn1)c1ccc(F)cc1F | Hepatotoxicity | Active
Nc1nc(F)nc2c1ncn2[C@@H]1O[C@H](CO)[C@@H](O)[C@@H]1O | Hepatotoxicity | Active
CC(C)n1c(/C=C/C(O)CC(O)CC(=O)O)c(-c2ccc(F)cc2)c2ccccc21 (centres undefined) | Hepatotoxicity | Inactive
C[C@H]1C[C@H]2[C@@H]3CCC4=CC(=O)C=C[C@]4(C)[C@@]3(F)[C@@H](O)C[C@]2(C)[C@@]1(O)C(=O)CCl | Hepatotoxicity | Inactive
CN(Cc1ccc(C(C)(C)C)cc1)Cc1cccc2ccccc12 | Hepatotoxicity | Inactive

Query block: Need Alkaline Phosphatase Increase - Activity Score, item `O=C1CN=C(c2ccccc2)c2cc(Cl)ccc2N1CC1CC1`
Result block: Inactive

Query block: Which Alkaline Phosphatase Increase - Activity Score is listed for `CN1C(=O)OC(C)(C)C1=O` ?
Result block: Active

Query block: Request the reported Alkaline Phosphatase Increase - Activity Score associated with `Cc1ccc(-c2nc3ccc(C)cn3c2CC(=O)N(C)C)cc1`
Result block: Marginally Active

Query block: # query: Alkaline Phosphatase Increase - Activity Score of entry `CC(=O)OCC(CCn1cnc2cnc(N)nc21)COC(C)=O`
Result block: Inactive

Query block: Fill in: Alkaline Phosphatase Increase - Activity Score of `CN1CCN(C2=Nc3cc(Cl)ccc3Nc3ccccc32)CC1` is ___
Result block: Active

Query block: Requested field: Alkaline Phosphatase Increase - Activity Score. Item: CCCCC(=O)O[C@H]1CC[C@H]2[C@@H]3CCc4cc(O)ccc4[C@H]3CC[C@]12C [ESTRADIOL VALERATE]
Result block: Inactive

Query block: Using the record for `CNCCCC12CCC(c3ccccc31)c1ccccc12` , report its Alkaline Phosphatase Increase - Activity Score.
Result block: Inactive

Query block: Given `Nc1cc(N2CCCCC2)nc(N)[n+]1[O-]` , state its recorded Alkaline Phosphatase Increase - Activity Score.
Result block: Inactive

Query block: Alkaline Phosphatase Increase - Activity Score for COc1ccc(C(=O)Nc2ccccc2CCC2CCCCN2C)cc1 (centres undefined) [ENCAINIDE] ?
Result block: Marginally Active

Query block: Looking for the measured Alkaline Phosphatase Increase - Activity Score of `C[C@@H](CN1CC(=O)NC(=O)C1)N1CC(=O)NC(=O)C1` , can you help?
Result block: Inactive

Query block: Bench note: what Alkaline Phosphatase Increase - Activity Score did `Nc1nc(O)c2ncn(COC(CO)CO)c2n1` show?
Result block: Active

Query block: // lookup Alkaline Phosphatase Increase - Activity Score for CN1CC[C@]23c4c5ccc(O)c4O[C@H]2C(=O)CC[C@H]3[C@H]1C5 [HYDROMORPHONE]
Result block: Inactive

Query block: Name the reported Alkaline Phosphatase Increase - Activity Score value associated with the molecule `NC(N)=Nc1nc(CSCCC(N)=NS(N)(=O)=O)cs1`
Result block: Inactive

Query block: Give the measured Alkaline Phosphatase Increase - Activity Score of CC(C)NCC(O)c1ccc(NS(C)(=O)=O)cc1 (centres undefined) .
Result block: Inactive

---

system: Hepatotoxicity; assay: FDA HLAED, serum glutamic pyruvic transaminase (SGPT) increase; settings: human
endpoint_name: SGPT Increase - Activity Score

Here's what some known entries look like.
compound | SGPT Increase - Activity Score
COc1ccc(Cl)cc1C(=O)NCCc1ccc(S(=O)(=O)NC(=O)NC2CCCCC2)cc1 [GLYBURIDE] | Inactive
CC(C)[C@H](N)C(=O)OCCOCn1cnc2c(=O)[nH]c(N)nc21 [VALACYCLOVIR] | Inactive
OCc1cc(C(O)CNCCCCCCOCCCCc2ccccc2)ccc1O (configuration not stated) [SALMETEROL] | Inactive
C#C[C@]1(O)CC[C@H]2[C@@H]3CCC4=Cc5oncc5C[C@]4(C)[C@H]3CC[C@@]21C [DANAZOL] | Active
O=C(O)[C@@H](S)[C@@H](S)C(=O)O | Active
Oc1ccc2c3c1O[C@H]1[C@@H](O)CC[C@@]4(O)[C@@H](C2)N(CC2CCC2)CC[C@]314 [NALBUPHINE] | Inactive
COc1ccc([C@@H]2Sc3ccccc3N(CCN(C)C)C(=O)[C@@H]2OC(C)=O)cc1 [DILTIAZEM] | Inactive
Cc1nnc2n1-c1ccc(Cl)cc1C(c1ccccc1)=NC2 [ALPRAZOLAM] | Inactive
CCc1nn(CCCN2CCN(c3cccc(Cl)c3)CC2)c(=O)n1CCOc1ccccc1 [NEFAZODONE] | Marginally Active
Cc1cc(C2CCCCC2)n(O)c(=O)c1 [CICLOPIROX] | Inactive

Query block: What does the data say about its SGPT Increase - Activity Score? Entry: CC(C)(C)c1ccc(C(O)CCCN2CCC(C(O)(c3ccccc3)c3ccccc3)CC2)cc1 (configuration not stated) [TERFENADINE]
Result block: Inactive

Query block: Look at this compound and give its reported SGPT Increase - Activity Score. COc1cccc(C2(O)CCCCC2CN(C)C)c1 (configuration not stated) [TRAMADOL]
Result block: Inactive

Query block: Entry CN(C)c1ccc(O)c2c1C[C@H]1C[C@H]3[C@H](N(C)C)C(O)=C(C(N)=O)C(=O)[C@@]3(O)C(O)=C1C2=O [MINOCYCLINE] has what SGPT Increase - Activity Score?
Result block: Marginally Active

Query block: What SGPT Increase - Activity Score value was documented for this compound, CCCCCCC(C)(C)c1cc(O)c2c(c1)OC(C)(C)C1CCC(=O)CC21 (configuration not stated) [NABILONE] ?
Result block: Inactive

Query block: SGPT Increase - Activity Score lookup needed for CC(C)/N=c1\cc2n(-c3ccc(Cl)cc3)c3ccccc3nc-2cc1Nc1ccc(Cl)cc1 [CLOFAZIMINE] , thanks.
Result block: Active

Query block: What value of measured SGPT Increase - Activity Score is listed for Cc1cccc(C)c1NC(=O)C(C)N (configuration not stated) [TOCAINIDE] ?
Result block: Inactive

Query block: Query: SGPT Increase - Activity Score; subject: C[C@]12CC[C@H]3[C@@H](CCC4=CC(=O)CC[C@@]43C)[C@@H]1CC[C@@H]2OC(=O)Cc1ccccc1 [TESTOSTERONE PHENYLACETATE]
Result block: Inactive

---

test system: Hepatotoxicity; test: FDA HLAED, serum glutamic oxaloacetic transaminase (SGOT) increase; conditions: human
endpoint_name: SGOT Increase - Number of Reports

molecule | assayed_system | SGOT Increase - Number of Reports
CC(C)OC(=O)CCC/C=C\C[C@@H]1[C@@H](CC[C@@H](O)CCc2ccccc2)[C@H](O)C[C@@H]1O [LATANOPROST] | Hepatotoxicity | < 4
Clc1ccc2nsnc2c1NC1=NCCN1 [TIZANIDINE] | Hepatotoxicity | < 4
CC(N)C12CC3CC(CC(C3)C1)C2 (centres undefined) [RIMANTADINE] | Hepatotoxicity | < 4
C[C@@H]1O[C@@H]1P(=O)(O)O [FOSFOMYCIN] | Hepatotoxicity | < 4
CN(C/C=C/c1ccccc1)Cc1cccc2ccccc12 [NAFTIFINE] | Hepatotoxicity | < 4

Query block: Which measured SGOT Increase - Number of Reports value corresponds to C[C@H]1[C@H](NC(=O)/C(=N\OC(C)(C)C(=O)O)c2csc(N)n2)C(=O)N1S(=O)(=O)O [AZTREONAM] ?
Result block: >= 4

Query block: Suppose we examine the molecule CNCC(O)c1ccc(OC(=O)C(C)(C)C)c(OC(=O)C(C)(C)C)c1 (centres undefined) [DIPIVEFRIN] ; what SGOT Increase - Number of Reports value has been reported?
Result block: < 4

Query block: State the recorded SGOT Increase - Number of Reports for this entry: CCCCC[C@H](O)/C=C/[C@H]1[C@H](O)CC(=O)[C@@H]1CCCCCCC(=O)O [ALPROSTADIL]
Result block: < 4

Query block: Any idea what its SGOT Increase - Number of Reports is? The molecule is NCCCC(O)(P(=O)(O)O)P(=O)(O)O [ALENDRONIC ACID]
Result block: >= 4

---

tested on: Hepatotoxicity; assay: FDA HLAED, gamma-glutamyl transferase (GGT) increase; conditions: human
endpoint_name: GGT Increase - Number of Reports

molecule | value
CCC1=C(C)CN(C(=O)NCCc2ccc(S(=O)(=O)NC(=O)N[C@H]3CC[C@H](C)CC3)cc2)C1=O [GLIMEPIRIDE] | < 4
CC(C)(C)NC[C@H](O)COc1ccccc1C1CCCC1 | < 4
CC=CC1=C(C(=O)O)N2C(=O)[C@@H](NC(=O)[C@H](N)c3ccc(O)cc3)[C@H]2SC1 | < 4
CC1(C)O[C@@H]2C[C@H]3[C@@H]4C[C@H](F)C5=CC(=O)C=C[C@]5(C)[C@H]4[C@@H](O)C[C@]3(C)[C@]2(C(=O)CO)O1 [FLUNISOLIDE] | < 4
CN1CCN(C2=Nc3cc(Cl)ccc3Nc3ccccc32)CC1 | >= 4

Query block: Name the reported GGT Increase - Number of Reports value associated with the molecule O=C(NCC(O)CO)c1c(I)c(C(=O)NCC(O)CO)c(I)c(N(CCO)C(=O)CO)c1I (stereo not drawn)
Result block: < 4

Query block: Can you look up the measured GGT Increase - Number of Reports of `CN1C(=O)OC(C)(C)C1=O` for me?
Result block: >= 4

Query block: What value of measured GGT Increase - Number of Reports is listed for CC(CN(C)C)CN1c2ccccc2CCc2ccccc21 (stereo not drawn) ?
Result block: < 4

This collection of values is drawn from ChEMBL document CHEMBL1697781.
